experiment: physchem; details: buffer
measured-attribute: half-life at 50 µM
Phrase the answer as number then unit, nothing more needed.

Record summary for `CN(N=Nc1nc(O)c2[nH]cnc2n1)C(=O)Oc1ccccc1` : reported half-life at 50 µM = 5.6 h

---

tested on: T. b. rhodesiense STIB 900; test: microbe, parasite or virus in culture; assay type: cell-based; details: Trypanosoma brucei, read-out: Trypanosoma brucei rhodesiense EC50
measured-attribute: EC50
Phrase the answer as number then unit, nothing more needed.

Record summary for CN(/N=N/c1nc(OCc2ccccc2)c2nc[nH]c2n1)C(=O)Oc1ccccc1 [Compound 10] : reported EC50 = 8.9 µM

---

biological target: T. brucei H2 (hypoxanthine transporter 2 of T. brucei brucei); format: cell-based; settings: inhibition of 0.05 μM [3H]hypoxanthine uptake, 60 s; mean ± SEM, n ≥ 3; read-out: Transport (Ki value) T. brucei H2
measured-attribute: Ki

Here are 2 compounds together with their reported answers.
compound | tgt | measured-attribute | endpoint-result
CN(N=Nc1nc(N)c2[nH]cnc2n1)C(=O)Oc1ccccc1 [Compound 6] | T. brucei H2 (hypoxanthine transporter 2 of T. brucei brucei) | Ki | 460 nM
CN(N=Nc1nc(O)c2[nH]cnc2n1)C(=O)Oc1ccccc1 [Compound 2] | T. brucei H2 (hypoxanthine transporter 2 of T. brucei brucei) | Ki | 200 nM

Reported Ki (T. brucei H2 (hypoxanthine transporter 2 of T. brucei brucei)) for entry O=C(NN=Nc1nc(O)c2[nH]cnc2n1)Oc1ccccc1 [Compound 5] is 90 nM

Reported Ki (T. brucei H2 (hypoxanthine transporter 2 of T. brucei brucei)) for entry CN(/N=N/c1nc(OCc2ccccc2)c2nc[nH]c2n1)C(=O)Oc1ccccc1 [Compound 10] is 22500 nM
